- Assay summary: detection-format interference in TR-FRET ratio – biochemical, artefact control for PPARgamma SRC-2 agonist project, primary screen (AID 1049)
- Condition notes: TR-FRET artefact counter-screen; at 8 µM
In all, about 200,000 compounds went through this assay and about 780 (0.39%) were called active. No stated cut-off is given here; in the data, active means TR-FRET ratio above about 2000; inactive means the rest. This excerpt belongs to a sample that is enriched for actives.
Labels: 1 (yes) = active, 0 (no) = inactive

{"columns": ["Molecule", "Qualitative label"],
 "data": [
  ["O=C(CSc1nnc(SCc2ccc(Cl)cc2)s1)N/N=C/c1ccccc1Cl", "0 (no)"],
  ["N#CC1(NC(=O)COc2ccc3oc4ccccc4c3c2)CCCCC1", "0 (no)"],
  ["Cc1cccc(-c2ncc(CN3CCC(CO)(CCCc4ccccc4)CC3)cn2)c1", "0 (no)"],
  ["CCOC(=O)N1CCC(NC(=O)COc2cc(=O)n(C)c3ccccc23)CC1", "0 (no)"],
  ["CN(C)c1ccc(N/C=C/C(=O)C(F)(F)F)cc1", "1 (yes)"],
  ["CC(Sc1nnnn1C)C(=O)NC(=O)NC1CCCCC1 (stereo not given)", "0 (no)"],
  ["Cn1c(=O)cc(SCC(=O)N2CCN(C(=O)c3ccco3)CC2)c2ccccc21", "1 (yes)"],
  ["CC(=O)Oc1ccc2c(C)c(CC(C)O)c(=O)oc2c1 (stereo not given)", "0 (no)"],
  ["N#Cc1ccc(-c2ccc(F)cc2)nc1Sc1ccccc1", "0 (no)"],
  ["COc1ccc(NC(=O)CSc2nc(C)cs2)cc1", "0 (no)"],
  ["Nc1c(NCCc2ccccc2)c2ccccc2oc1=O", "0 (no)"],
  ["O=C(Nc1cccc(CCc2ccccn2)c1)c1ccc(Cl)cc1", "0 (no)"],
  ["CN(C)C(=O)c1ccc2c(c1)C1C3CCC(C3)C1C(c1ccccc1)N2 (stereo not given)", "0 (no)"],
  ["OCC1(CCc2ccccc2)CCN(Cc2ccc3nsnc3c2)CC1", "1 (yes)"],
  ["CC(=O)N1c2ccccc2N(Cc2ccc([N+](=O)[O-])cc2)C(=O)C1(C)C", "0 (no)"],
  ["Cc1cc(=O)n2[nH]c(-c3sccc3-n3c(C)ccc3C)cc2n1", "0 (no)"],
  ["Cn1c(=O)cc(SCC(=O)N2CCCC2)c2cc(Cl)ccc21", "1 (yes)"],
  ["CC(=O)c1cccc(CN2CCC(CO)(Cc3ccccc3)CC2)c1", "0 (no)"],
  ["Nc1nnc(SCC(=O)Nc2ccc3nc(SCC(=O)Nc4ccccc4)sc3c2)s1", "0 (no)"],
  ["CCOc1ccc(CCNC(=O)CSc2cc(=O)n(C)c3ccc(Cl)cc23)cc1OCC", "0 (no)"],
  ["CC(C)NC(=O)CSc1ccccc1C(=O)NCc1ccc2c(c1)OCO2", "0 (no)"],
  ["O=C(COC(=O)c1c2c(nc3ccccc13)/C(=C\\c1cccs1)CCC2)Nc1ccccc1Cl", "0 (no)"],
  ["CCOc1ccc(N2CC(C(=O)NCCN3C(=O)S/C(=C\\c4cccnc4)C3=O)CC2=O)cc1 (stereo not given)", "0 (no)"],
  ["CCOc1ccc(N2C(=O)Nc3ccccc3C2(O)C(=O)NCc2ccco2)cc1 (stereo not given)", "0 (no)"],
  ["Cc1cc(C)c(NC(=O)c2oc3ccccc3c2COc2ccccc2)c(C)c1", "0 (no)"]
]}

---

- Assay summary: detection-format interference in TR-FRET ratio – biochemical, artefact control for PPARgamma SRC-2 agonist project, primary screen (AID 1049)
- Condition notes: TR-FRET artefact counter-screen; at 8 µM; active compounds read high
About 780 (0.39%) of roughly 200,000 compounds were called active. The entries come from a sample that favours actives as a whole.
Each item that follows carries a reported TR-FRET ratio.
Metric name: TR-FRET ratio

{"columns": ["Molecule", "Result"],
 "data": [
  ["Cc1ccc(C(=O)O)cc1N1C(=O)CCCC1=O", "1430 (inactive)"],
  ["COCCNC(=S)N/N=C/c1c(C)[nH]c2ccccc12", "1410 (inactive)"],
  ["CCOc1ncccc1C(=O)OCC(=O)NC1CC1", "1600 (inactive)"],
  ["c1ccc(COc2nsnc2N2CCOCC2)cc1", "1720 (inactive)"],
  ["O=C(c1ccc2ccccc2n1)N1CCN(c2ccccc2Cl)CC1", "1700 (inactive)"],
  ["O=C1NC(c2cccc(Cl)c2)Nc2ccccc21 (centres undefined)", "1540 (inactive)"],
  ["CCOC(=O)c1sc(NC(=O)COc2ncnc3ccccc23)c(C(=O)OCC)c1C", "1580 (inactive)"],
  ["CC(C)(C)N(CC#CCC(O)(c1ccccc1)C1CCCC1)CCO (centres undefined)", "1230 (inactive)"],
  ["COc1ccc(C2C(C#N)=C(N)N(c3ncn[nH]3)C3=C2C(=O)CCC3)cc1 (centres undefined)", "1620 (inactive)"],
  ["Cc1ccc2[nH]c(=O)c(CN(CC3COCCO3)C(=O)Nc3ccccc3C)cc2c1 (centres undefined)", "1560 (inactive)"],
  ["CN(C)/C=C(/C(=O)c1ccccc1)S(=O)(=O)c1ccc(Cl)cc1", "1390 (inactive)"],
  ["O=C(/C=C/c1ccccc1[N+](=O)[O-])OC1CCCCC1=O (centres undefined)", "1570 (inactive)"],
  ["O=C(O)Cc1sc(-c2ccc(C(=O)O)cc2)nc1-c1ccccc1", "1800 (inactive)"],
  ["CCN(CC)CCCNC(=O)CCc1ccccc1", "1550 (inactive)"],
  ["COc1cc(/C=N/N=C(\\N)c2nonc2N)cc(OC)c1OC", "1490 (inactive)"],
  ["O=C(Nc1cccc(O)c1)c1ccc(C(=O)c2ccccc2)o1", "1480 (inactive)"],
  ["CC(=O)Nc1ccc(S(=O)(=O)Oc2ccc(/C=N/N=C3/NC(=O)C(CC(=O)O)S3)cc2)cc1 (centres undefined)", "1610 (inactive)"],
  ["O=C(O)/C=C/c1ccc(OCCCF)cc1", "1530 (inactive)"],
  ["COc1ccc(NC(=O)CN2C(=O)CSC2=O)cc1", "1580 (inactive)"]
]}

---

- Assay summary: detection-format interference in TR-FRET ratio – biochemical, artefact control for PPARgamma SRC-2 agonist project, primary screen (AID 1049)
- Condition notes: TR-FRET artefact counter-screen; at 8 µM; active compounds read high
Hit rate of the full screen: of about 200,000 compounds, about 780 (0.39%) were called active. Many of the other results were omitted from the sample, so actives are more common in it than they were.
Metric name: TR-FRET ratio

{"columns": ["Compound", "Readout number"],
 "data": [
  ["Cc1ccc2nc(-c3cccc(Br)c3)cc(C(=O)Nn3cnnc3)c2c1", 1400],
  ["CCN(CC)S(=O)(=O)c1ccc(N(C)Cc2cccc(OC)c2OC)nc1", 1770],
  ["COc1ccc2c(Cl)c(C(=O)NCc3ccco3)sc2c1", 1570],
  ["NC(=O)CSc1oc(-c2cccs2)nc1S(=O)(=O)c1ccccc1", 2010],
  ["CCOC(=O)N/N=C/c1cccnc1", 1680],
  ["CCOC(=O)c1sc(NC(=O)CSc2n[nH]c(CC)n2)nc1C", 1730],
  ["Cc1ccc(N2C(=O)C(NC(=O)c3c(F)cccc3F)(C(F)(F)F)C3=C2CC(C)(C)CC3=O)cc1 (stereo not drawn)", 1460],
  ["Cc1nc(-c2ccccc2)sc1C(=O)/C=C/c1ccccc1", 1450],
  ["O=C(CSc1cccc2cccnc12)N/N=C/c1cccnc1", 2120],
  ["COc1cccc(NC(=O)c2ccc3c(SCC(=O)O)c4c(nc3c2)CCCC4)c1", 1460],
  ["COc1ccc(Cl)cc1C(=O)NCc1cn(C)nc1C", 1670],
  ["COc1ccc(OC)c(C(=O)CSc2nnc(-c3cccs3)o2)c1", 1750],
  ["COc1ccc(/C=N/Nc2ncnc3sc4c(c23)CCCC4)cc1O", 1360]
]}
